Biological target: MLTK (human)
Assay: radiometric filter-binding kinase assay, Kinase HotSpot
Conditions: compound 0.5 µM; ATP 10 µM
Could you please report measured residual activity for the items listed next?

Answered cases to consult:
# structure, residual activity
records = [
    ("CC(C)(C)c1cc(C=C(C#N)C#N)cc(Br)c1O", "91.2%"),
    ("O=C1Nc2ccc(Br)cc2/C1=C\\c1cc2c([nH]1)CCCC2", "87.7%"),
]

--- query ---
*Q* Which residual activity value is on record for COc1ccc2c(c1)/C(=C/c1cnc[nH]1)C(O)=N2 ?
*A* 91.4%

* * *

Molecular target: ROS1 (human)
Experiment: radiometric filter-binding kinase assay, Kinase HotSpot
Conditions: compound 0.5 µM; ATP 10 µM
quantity kind: residual activity (%)
Numbers only, in %.

# annotated cases, reported residual activity shown
# structure, endpoint value
records = [
    ("COc1ccc2c(c1)c(C1=C(c3c[nH]c4ccccc34)C(=O)NC1=O)cn2CCCN(C)C", 52.4),
    ("C[C@@H]1CCN(C(=O)CC#N)C[C@@H]1N(C)c1ncnc2[nH]ccc12", 94.1),
]

*Q* Return reported residual activity; argument: COc1ccc2c(c1)/C(=C/c1cnc[nH]1)C(O)=N2
*A* 91.1

Provenance of the data: the kinase profiling compilation of Christmann-Franck et al. (2016)
